Recorded values, source patent US20250243210A1.

Provide the recorded pIC50 for the entries that follow.
System: PC-3
Assay: CCK-8 tumor cell proliferation, PC-3
Assay type: cell-based, Human
Settings: Homo sapiens, PC-3, 96 h, read-out: IC50 for inhibiting the proliferation of tumor cells, PC-3
Experimental: Determination of half inhibitory concentration (IC50) of the compounds against tumor cells: The tumor cells used herein were cultured in a cell culture medium listed in table 6 at 37° C. in an incubator with 5% CO2. […]
pIC50: −log10 of the molar value.

// query pIC50 value for entry CC1(C)[C@H](NC(=O)c2ccc(N3CCC(CN4C5CC4CN(c4ccc6c(c4)C(=O)N(C4CCC(=O)NC4=O)C6=O)C5)CC3)nn2)C(C)(C)[C@H]1Oc1ccc(C#N)c(Cl)c1 (stereo partly drawn) 6.30 to 7.00

Requested field: pIC50. Item: CC1(C)[C@H](NC(=O)c2ccc(N3CCC(CN4CC5CC(C4)N5c4ccc5c(c4)C(=O)N(C4CCC(=O)NC4=O)C5=O)CC3)nn2)C(C)(C)[C@H]1Oc1ccc(C#N)c(Cl)c1 (stereo partly drawn) 6.30 to 7.00

Requested read-out: pIC50. Entry: CC1(C)[C@H](NC(=O)c2ccc(N3CCC(CN4CC5CC(C4)N5c4cc5c(cc4F)C(=O)N(C4CCC(=O)NC4=O)C5=O)CC3)nc2)C(C)(C)[C@H]1Oc1ccc(C#N)c(Cl)c1 (stereo partly drawn) 6.30 to 7.00

Reported pIC50, molecule CC1(C)[C@H](NC(=O)c2ccc(N3CCC(CN4CC5CCC(C4)N5c4cc5c(cc4F)C(=O)N(C4CCC(=O)NC4=O)C5=O)CC3)nn2)C(C)(C)[C@H]1Oc1ccc(C#N)c(Cl)c1 (stereo partly drawn) : ____ ≥ 7.30

If you can, please state the reported pIC50 value of CC1(C)[C@H](NC(=O)c2ccc(N3CCC(CN4C5CCC4CN(c4ccc6c(c4)C(=O)N(C4CCC(=O)NC4=O)C6=O)C5)CC3)nn2)C(C)(C)[C@H]1Oc1ccc(C#N)c(Cl)c1 (stereo partly drawn) . 6.30 to 7.00

What pIC50 value was documented for this molecule, CC1(C)[C@H](NC(=O)c2ccc(N3CCC(CN4CC5CCC(C4)N5c4cc5c(cc4F)C(=O)N(C4CCC(=O)NC4=O)C5=O)CC3)nc2)C(C)(C)[C@H]1Oc1ccc(C#N)c(Cl)c1 (stereo partly drawn) ? 7.00 to 7.30

----------
Answer each item with its documented IC50.
System: Kasumi-1
Assay: CCK-8 tumor cell proliferation, Kasumi-1
Type: cell-based
Conditions: Homo sapiens, Kasumi-1, 72 h, read-out: IC50 for inhibiting the proliferation of tumor cells, Kasumi-1
Experimental: Determination of half inhibitory concentration (IC50) of the compounds against tumor cells: The tumor cells used herein were cultured in a cell culture medium listed in table 6 at 37° C. in an incubator with 5% CO2. […]

Which IC50 is listed for Cc1nc(Nc2ncc(C(=O)Nc3c(C)cccc3Cl)s2)cc(N2CCC(CN3C4CCC3CN(c3cc5c(cc3F)C(=O)N(C3CCC(=O)NC3=O)C5=O)C4)CC2)n1 (stereo not drawn) ? 50 to 100 nM

Request the reported IC50 associated with Cc1nc(Nc2ncc(C(=O)Nc3c(C)cccc3Cl)s2)cc(N2CCC(CN3C4CC3CN(c3ccc5c(c3)C(=O)N(C3CCC(=O)NC3=O)C5=O)C4)CC2)n1 (stereo not drawn) 100 to 500 nM

What IC50 value was documented for this compound, Cc1nc(Nc2ncc(C(=O)Nc3c(C)cccc3Cl)s2)cc(N2CCN(CCO)CC2)n1 [Dasatinib, reference compound] ? ≤ 50 nM

I am curious: what IC50 value has been reported for Cc1nc(Nc2ncc(C(=O)Nc3c(C)cccc3Cl)s2)cc(N2CCC(CN3CC4CC(C3)N4c3ccc4c(c3)C(=O)N(C3CCC(=O)NC3=O)C4=O)CC2)n1 (stereo not drawn) ? ≤ 50 nM

Name the reported IC50 value associated with the compound Cc1nc(Nc2ncc(C(=O)Nc3c(C)cccc3Cl)s2)cc(N2CCC(CN3C4CCC3CN(c3ccc5c(c3)C(=O)N(C3CCC(=O)NC3=O)C5=O)C4)CC2)n1 (stereo not drawn) ≤ 50 nM

# IC50 lookup, item Cc1nc(Nc2ncc(C(=O)Nc3c(C)cccc3Cl)s2)cc(N2CCC(CN3CC4CCC(C3)N4c3cc4c(cc3F)C(=O)N(C3CCC(=O)NC3=O)C4=O)CC2)n1 (stereo not drawn) 100 to 500 nM

What does the record list as IC50 for Cc1nc(Nc2ncc(C(=O)Nc3c(C)cccc3Cl)s2)cc(N2CCC(CN3CC4CCC(C3)N4c3ccc4c(c3)C(=O)N(C3CCC(=O)NC3=O)C4=O)CC2)n1 (stereo not drawn) ? 100 to 500 nM

Could you share which IC50 value was measured for Cc1nc(Nc2ncc(C(=O)Nc3c(C)cccc3Cl)s2)cc(N2CCC(CN3CC4CC(C3)N4c3cc4c(cc3F)C(=O)N(C3CCC(=O)NC3=O)C4=O)CC2)n1 (stereo not drawn) ? 100 to 500 nM

Form field: reported IC50 of Cc1nc(Nc2ncc(C(=O)Nc3c(C)cccc3Cl)s2)cc(N2CCC(CN3C4CC3CN(c3cc5c(cc3F)C(=O)N(C3CCC(=O)NC3=O)C5=O)C4)CC2)n1 (stereo not drawn) 100 to 500 nM

----------
Provide the reported IC50 of each item.
System: MGC80-3
Assay: CCK-8 tumor cell proliferation, MGC80-3
Assay type: cell-based, Human
Conditions: Homo sapiens, MGC-803, MGC80-3, 96 h, read-out: IC50 for inhibiting the proliferation of tumor cells, MGC80-3
Method: Determination of half inhibitory concentration (IC50) of the compounds against tumor cells: The tumor cells used herein were cultured in a cell culture medium listed in table 6 at 37° C. in an incubator with 5% CO2. Prior to experimentation, all cells used were correctly identified by STR profiling, and tested negative for mycoplasma through routine screenings. […]

Tell me the measured IC50 of CC1(C)[C@H](NC(=O)c2ccc(N3CCC(CN4C5CCC4CN(c4ccc6c(c4)C(=O)N(C4CCC(=O)NC4=O)C6=O)C5)CC3)nc2)C(C)(C)[C@H]1Oc1ccc(C#N)c(Cl)c1 (stereo partly shown) [GT-03426] , please. 50 to 100 nM

Recorded IC50 for CC1(C)[C@H](NC(=O)c2ccc(N3CCC(CN4CC5CC(C4)N5c4cc5c(cc4F)C(=O)N(C4CCC(=O)NC4=O)C5=O)CC3)nc2)C(C)(C)[C@H]1Oc1ccc(C#N)c(Cl)c1 (stereo partly shown) [GT-03403] , please? 500 to 1000 nM

Could you share which IC50 value was measured for CC1(C)[C@H](NC(=O)c2ccc(N3CCC(CN4C5CC4CN(c4cc6c(cc4F)C(=O)N(C4CCC(=O)NC4=O)C6=O)C5)CC3)nc2)C(C)(C)[C@H]1Oc1ccc(C#N)c(Cl)c1 (stereo partly shown) [GT-03404] ? 100 to 500 nM

What value of IC50 has been reported for the following molecule? CC1(C)[C@H](NC(=O)c2ccc(N3CCC(CN4CC5CCC4CN5c4cc5c(cc4F)C(=O)N(C4CCC(=O)NC4=O)C5=O)CC3)nc2)C(C)(C)[C@H]1Oc1ccc(C#N)c(Cl)c1 (stereo partly shown) [GT-03494] 50 to 100 nM

Consider the molecule CC1(C)[C@H](NC(=O)c2ccc(N3CCC(CN4CC5CC(C4)N5c4ccc5c(c4)C(=O)N(C4CCC(=O)NC4=O)C5=O)CC3)nn2)C(C)(C)[C@H]1Oc1ccc(C#N)c(Cl)c1 (stereo partly shown) [GT-03400] and give its measured IC50. 100 to 500 nM

# IC50 lookup, item CC1(C)[C@H](NC(=O)c2ccc(N3CCC(CN4C5CC4CN(c4ccc6c(c4)C(=O)N(C4CCC(=O)NC4=O)C6=O)C5)CC3)nc2)C(C)(C)[C@H]1Oc1ccc(C#N)c(Cl)c1 (stereo partly shown) [GT-03471] 100 to 500 nM

Name the reported IC50 value associated with the molecule CC1(C)[C@H](NC(=O)c2ccc(N3CCC(CN4CC5CCC4CN5c4ccc5c(c4)C(=O)N(C4CCC(=O)NC4=O)C5=O)CC3)nc2)C(C)(C)[C@H]1Oc1ccc(C#N)c(Cl)c1 (stereo partly shown) [GT-03481] 100 to 500 nM
